SUBJECT_OF_TEST: human orexin type 2 receptor (Homo sapiens)
Construct: expressed in transfected cells
Sequence (O43614 1-444): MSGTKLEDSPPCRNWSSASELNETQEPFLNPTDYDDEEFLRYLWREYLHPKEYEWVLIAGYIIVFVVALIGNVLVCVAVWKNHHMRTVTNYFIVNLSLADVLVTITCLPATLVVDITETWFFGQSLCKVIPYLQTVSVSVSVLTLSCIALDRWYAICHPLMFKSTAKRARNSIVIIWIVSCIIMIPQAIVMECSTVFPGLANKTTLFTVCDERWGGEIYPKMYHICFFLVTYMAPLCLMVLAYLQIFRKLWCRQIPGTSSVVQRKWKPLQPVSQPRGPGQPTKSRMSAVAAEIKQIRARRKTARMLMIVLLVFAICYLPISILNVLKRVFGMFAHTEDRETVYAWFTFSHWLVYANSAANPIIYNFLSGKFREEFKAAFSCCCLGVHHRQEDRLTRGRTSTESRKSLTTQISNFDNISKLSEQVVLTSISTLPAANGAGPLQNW
PROTOCOL_TEXT: Measurement of orexin type 2 receptor agonist activity (calcium fluorescence, Fluo-4 AM, FDSS)
Assay type: cell-based
ASSAY_CONDITIONS: test compound 3 μM; CHO cells expressing human OX2 receptor; DMSO = 0%, orexin A (human) = 100%
The molecules listed here are annotated with their OX2R agonist activity (3 μM, %).
Give your result in % as a bare value.

>  <MOLECULE>
CS(=O)(=O)NC1CCN(C(=O)C2CC2c2c(F)cccc2-c2ccccc2F)C1 (racemic) [Example 188]

>  <OBSERVED_RESULT>
86

$$$$
>  <MOLECULE>
CS(=O)(=O)N[C@H]1CCN(C(=O)C2CC2(F)c2ccccc2-c2c(F)cccc2F)C1 (single isomer, unassigned) [Example 304]

>  <OBSERVED_RESULT>
93

$$$$
>  <MOLECULE>
CS(=O)(=O)NC1CCN(C(=O)C2CC2c2cscc2-c2c(F)cccc2F)C1 (racemic) [Example 321]

>  <OBSERVED_RESULT>
95

$$$$
>  <MOLECULE>
O=C([C@@H]1C[C@H]1c1ccccc1-c1c(F)cccc1F)N1CCO[C@H](CNS(=O)(=O)N2CCC2)C1 [Example 338]

>  <OBSERVED_RESULT>
98

$$$$
>  <MOLECULE>
CC1C(C(=O)N2CC[C@H](NS(C)(=O)=O)C2)C1c1ccccc1-c1c(F)cccc1F (mixture of isomers) [Example 303]

>  <OBSERVED_RESULT>
99

$$$$
>  <MOLECULE>
O=C([C@@H]1C[C@@]1(F)c1ccc(F)cc1-c1c(F)cccc1F)N1C[C@@H](F)[C@H]1CNS(=O)(=O)CC1CC1 [Example 445]

>  <OBSERVED_RESULT>
76

$$$$
>  <MOLECULE>
CNS(=O)(=O)N[C@H]1CCN(C(=O)[C@@H]2C[C@H]2c2ccccc2-c2c(F)cccc2F)C1 [Example 335]

>  <OBSERVED_RESULT>
96

$$$$
>  <MOLECULE>
CS(=O)(=O)N[C@H]1C[C@H](O)CN(C(=O)[C@@H]2C[C@H]2c2ccccc2-c2c(F)cccc2F)C1 [Example 319]

>  <OBSERVED_RESULT>
101

$$$$
>  <MOLECULE>
CS(=O)(=O)NCC1CCCN(C(=O)C2CC2c2ccccc2-c2c(F)cccc2F)C1 (racemic) [Example 128]

>  <OBSERVED_RESULT>
89

$$$$
>  <MOLECULE>
C[C@H]1C[C@H](NS(C)(=O)=O)CN1C(=O)C1(C)CC1c1ccccc1-c1c(F)cccc1F (some centres unmarked) [Example 315]

>  <OBSERVED_RESULT>
91

$$$$

For CNS(=O)(=O)NC[C@@H]1[C@H](F)CN1C(=O)C1(COC)CC1c1ccc(F)cc1-c1c(F)cccc1F (some centres unmarked) [Example 438] the molecule record lists OX2R agonist activity (3 μM, %) as 101

For Cc1cc(-c2c(F)cccc2F)c(C2CC2C(=O)N2CCCC(NS(C)(=O)=O)C2)cn1 (racemic) [Example 267] the molecule record lists OX2R agonist activity (3 μM, %) as 87
